- System: HL-60
- protocol notes: 3H thymidine proliferation assay, HL-60
- Type: cell-based, human
- run conditions: Homo sapiens, HL-60, read-out: EC50, HL-60, 3H thymidine method, 72 h incubation
With a cut-off of 7 nM, any EC50 strictly below it is called 1; any EC50 meeting it or above is called 0.

[
  {
    "compound": "CC[C@H](C)[C@H](NC(=O)[C@H]1CCCCN1C)C(=O)N(C)[C@H](C[C@@H](OC)c1nc(C(=O)NC(Cc2ccccc2)C[C@H](C)C(=O)O)cs1)C(C)C (stereo partly drawn)",
    "answer label": 1
  },
  {
    "compound": "CCCC(NC(=O)c1csc([C@@H](C[C@H](C(C)C)N(C)C(=O)[C@@H](NC(=O)[C@H]2CCCCN2C)[C@@H](C)CC)OC)n1)C(=O)OC (stereo partly drawn)",
    "answer label": 0
  },
  {
    "compound": "CC[C@H](C)[C@H](NC(=O)[C@H]1CCCCN1C)C(=O)N(COC)[C@H](C[C@@H](OC(C)=O)c1nc(C(=O)N[C@@H](Cc2ccccc2)C(=O)OC)cs1)C(C)C",
    "answer label": 0
  },
  {
    "compound": "CC[C@H](C)[C@H](NC(=O)[C@H]1CCCCN1C)C(=O)N(C)[C@H](C[C@@H](OC)c1nc(C(=O)N[C@H](CC(=O)OC)Cc2ccccc2)cs1)C(C)C",
    "answer label": 0
  },
  {
    "compound": "CC[C@H](C)[C@H](NC(=O)[C@H]1CCCCN1C)C(=O)N(C)[C@H](C[C@@H](OC)c1nc(C(=O)N[C@@H](C)C(=O)N[C@@H](Cc2ccccc2)C(=O)OC)cs1)C(C)C [Compound 26a]",
    "answer label": 0
  },
  {
    "compound": "CC[C@H](C)[C@H](NC(=O)[C@H]1CCCCN1C)C(=O)N(C)[C@H](C[C@@H](OC(C)=O)c1nc(C(=O)N[C@@H](Cc2ccc(N)cc2)CC(C)C(=O)O)cs1)C(C)C (stereo partly drawn)",
    "answer label": 0
  },
  {
    "compound": "CC[C@H](C)[C@H](NC(=O)[C@H]1CCCCN1C)C(=O)N(C)[C@H](C[C@@H](OC)c1nc(C(=O)N[C@H](CCC(=O)OC)Cc2ccccc2)cs1)C(C)C",
    "answer label": 1
  },
  {
    "compound": "CC[C@H](C)[C@H](NC(=O)[C@H]1CCCCN1C)C(=O)N(COC(=O)CC(C)C)[C@H](C[C@@H](OC(C)=O)c1nc(C(=O)N[C@@H](Cc2ccc(N)cc2)CC(C)C(=O)O)cs1)C(C)C (stereo partly drawn)",
    "answer label": 1
  }
]
